# Experimental Target: CK1α (Homo sapiens, UniProt P48729+Q96SW2)
# Construct: CSNK1A1-HiBit KI HEK293(LgBit) Cells; host or cells: HEK293(LgBit) knock-in cells
# Sequence (P48729 whole entry): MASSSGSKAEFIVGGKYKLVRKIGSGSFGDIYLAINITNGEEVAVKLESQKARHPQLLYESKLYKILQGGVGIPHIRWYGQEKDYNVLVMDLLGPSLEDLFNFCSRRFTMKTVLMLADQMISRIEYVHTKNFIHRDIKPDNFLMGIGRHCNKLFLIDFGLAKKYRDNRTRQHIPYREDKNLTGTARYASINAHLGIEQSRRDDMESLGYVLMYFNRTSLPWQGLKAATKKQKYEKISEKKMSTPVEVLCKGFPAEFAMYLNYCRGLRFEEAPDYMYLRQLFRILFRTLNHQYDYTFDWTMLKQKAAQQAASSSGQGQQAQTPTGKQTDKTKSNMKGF
# Sequence (Q96SW2 whole entry): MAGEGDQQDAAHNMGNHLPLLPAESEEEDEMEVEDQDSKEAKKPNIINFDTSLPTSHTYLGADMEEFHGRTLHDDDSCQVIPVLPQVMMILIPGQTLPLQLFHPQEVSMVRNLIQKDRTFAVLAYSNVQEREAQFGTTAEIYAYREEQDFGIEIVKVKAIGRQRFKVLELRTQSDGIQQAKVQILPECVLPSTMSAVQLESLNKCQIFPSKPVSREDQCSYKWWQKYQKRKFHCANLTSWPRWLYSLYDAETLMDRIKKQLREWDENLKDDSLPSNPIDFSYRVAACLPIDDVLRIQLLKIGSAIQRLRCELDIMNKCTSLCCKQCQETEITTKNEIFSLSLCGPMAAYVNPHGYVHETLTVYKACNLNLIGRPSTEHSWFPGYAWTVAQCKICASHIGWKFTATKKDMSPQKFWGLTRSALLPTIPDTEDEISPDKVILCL
# Sequence (Q16531 whole entry partner): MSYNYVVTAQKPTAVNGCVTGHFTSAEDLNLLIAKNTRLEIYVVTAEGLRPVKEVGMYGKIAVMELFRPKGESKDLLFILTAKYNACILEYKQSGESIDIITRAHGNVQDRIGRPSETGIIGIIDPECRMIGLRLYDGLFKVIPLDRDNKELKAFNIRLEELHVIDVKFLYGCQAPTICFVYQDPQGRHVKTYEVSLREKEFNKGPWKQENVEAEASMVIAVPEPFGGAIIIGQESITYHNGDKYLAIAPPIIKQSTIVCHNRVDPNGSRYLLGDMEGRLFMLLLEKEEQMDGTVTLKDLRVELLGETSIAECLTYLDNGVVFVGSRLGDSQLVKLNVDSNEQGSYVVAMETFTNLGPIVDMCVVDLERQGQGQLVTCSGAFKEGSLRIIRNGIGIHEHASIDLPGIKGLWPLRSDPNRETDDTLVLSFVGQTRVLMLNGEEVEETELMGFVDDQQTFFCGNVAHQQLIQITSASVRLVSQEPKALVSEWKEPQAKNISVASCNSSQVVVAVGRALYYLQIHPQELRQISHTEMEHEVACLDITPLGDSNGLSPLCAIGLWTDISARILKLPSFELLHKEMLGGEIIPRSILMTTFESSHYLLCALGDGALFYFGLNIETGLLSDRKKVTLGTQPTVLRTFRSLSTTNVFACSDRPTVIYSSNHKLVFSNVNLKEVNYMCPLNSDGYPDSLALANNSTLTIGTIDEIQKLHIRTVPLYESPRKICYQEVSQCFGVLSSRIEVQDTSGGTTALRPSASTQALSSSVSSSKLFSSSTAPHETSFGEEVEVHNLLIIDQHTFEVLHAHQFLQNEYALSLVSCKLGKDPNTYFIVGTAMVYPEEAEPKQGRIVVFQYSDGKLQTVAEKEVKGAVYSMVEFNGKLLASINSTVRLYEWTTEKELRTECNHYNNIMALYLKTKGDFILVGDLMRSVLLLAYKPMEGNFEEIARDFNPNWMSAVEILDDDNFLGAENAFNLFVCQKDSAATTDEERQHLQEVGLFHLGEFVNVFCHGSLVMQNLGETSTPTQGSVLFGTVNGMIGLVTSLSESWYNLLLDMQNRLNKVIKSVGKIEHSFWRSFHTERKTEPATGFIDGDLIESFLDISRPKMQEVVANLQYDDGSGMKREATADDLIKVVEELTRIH
# Protocol: HiBiT degradation assay, CK1α, Procedure A
# Type: cell-based
# Run Conditions: six hours
# Description: Compounds were spotted onto Cornin 384-Well, Cell Culture-Treated, Flat-Bottom, Low Flange Microplate (Fisher Scientific, Catalog #07-201-013) using a Tecan D300e digital dispenser. […] Cells were dissociated from tissue 182 cm^2 Tissue Culture Flask (CellTreat Catalog #229351) by washing the cells with PBS (Fisher Scientific Catalog #BP3994) followed by dissociation with Trypsin-EDTA (0.25%) (Thermo Scientific Catalog #25200056). […] Cell density was determined using a Denovix CellDrop BF cell counter. […]
Recorded Endpoint: DC50

For Cn1ncc(-c2ccc3c(c2)CN(C2CCC(=O)NC2=O)C3=O)c1-c1ccc2sccc2c1 (stereo not shown) [Example 478] the molecule record lists DC50 as < 25 nM

Recorded result, CC(C)n1ccc(-c2c(-c3ccc4c(c3)CN(C3CCC(=O)NC3=O)C4=O)ncn2C)n1 (stereo not shown) [Example 487] , DC50: < 25 nM

So for Cn1cnc(-c2ccc3c(c2)CN(C2CCC(=O)NC2=O)C3=O)c1-c1ccc2nc[nH]c2c1 (stereo not shown) [Example 401] , the logged DC50 turned out to be < 25 nM

// recorded DC50 for Cn1cc(-c2ccc3c(c2)CN(C2CCC(=O)NC2=O)C3=O)nc1-c1ccc(C#N)nc1 (stereo not shown) [Example 572] : < 25 nM

Data point: Cn1cc(-c2ccc3c(c2)CN(C2CCC(=O)NC2=O)C3=O)nc1-c1ccsc1 (stereo not shown) [Example 664] ; DC50 = < 25 nM

Recorded result, Cn1cc(-c2ccc3c(c2)CN(C2CCC(=O)NC2=O)C3=O)nc1-c1ccc2c(c1)CC(=O)N2 (stereo not shown) [Example 722] , DC50: ≥ 25 nM

DC50 in this record for Cn1cc(-c2ccc3c(c2)CN(C2CCC(=O)NC2=O)C3=O)nc1-c1ccc2c(c1)OCO2 (stereo not shown) [Example 680] : < 25 nM

Measured DC50 of O=C1CCC(N2Cc3cc(-n4cnc(-c5ccccc5)c4)ccc3C2=O)C(=O)N1 (stereo not shown) [Example 552] : ≥ 25 nM

Record summary for Cn1ncc(-c2ccc3c(c2)CN(C2CCC(=O)NC2=O)C3=O)c1C1=CCCCC1 (stereo not shown) [Example 589] : reported DC50 = < 25 nM

Quick note, DC50 for Cc1cccc(F)c1-c1nc(-c2ccc3c(c2)CN(C2CCC(=O)NC2=O)C3=O)cn1C (stereo not shown) [Example 651] landed at < 25 nM

====

# Experimental Target: CK1α (Homo sapiens, UniProt P48729+Q96SW2)
# Construct: CSNK1A1-HiBit KI HEK293(LgBit) Cells; host or cells: HEK293(LgBit) knock-in cells
# Protocol: HiBiT degradation assay, CK1α, Procedure A
# Format: cell-based
# Run Conditions: six hours
Recorded Endpoint: DC50

For COc1ccc(-c2c(-c3ccc4c(c3)CN(C3CCC(=O)NC3=O)C4=O)cnn2C)cn1 (stereo not shown) [Example 378] the molecule record lists DC50 as < 25 nM

response.value for Cn1ncc(-c2ccc3c(c2)CN(C2CCC(=O)NC2=O)C3=O)c1-c1cn[nH]c1 (stereo not shown) [Example 468] (field: DC50) = ≥ 25 nM

# DC50 (molecule: Cn1ncc(-c2ccc3c(c2)CN(C2CCC(=O)NC2=O)C3=O)c1-c1ccc2c(c1)OC(F)(F)O2 (stereo not shown) [Example 428] ) is < 25 nM

Summary for this molecule, Cn1ncc(-c2ccc3c(c2)CN(C2CCC(=O)NC2=O)C3=O)c1-c1ccc2occc2c1 (stereo not shown) [Example 381] : DC50 is < 25 nM

Sure, the documented DC50 for Cn1ncc(-c2ccc3c(c2)CN(C2CCC(=O)NC2=O)C3=O)c1C1=CCOC1 (stereo not shown) [Example 593] is ≥ 25 nM

Record summary for COc1ccc2cc(-c3c(-c4ccc5c(c4)CN(C4CCC(=O)NC4=O)C5=O)ncn3C)ccc2c1 (stereo not shown) [Example 446] : reported DC50 = < 25 nM

DC50 recorded for this molecule, CC(C)n1ncc(-c2ccc3c(c2)CN(C2CCC(=O)NC2=O)C3=O)c1-c1ccccc1 (stereo not shown) [Example 426] , is < 25 nM

The molecule listed as Cn1cc(-c2ccc3c(c2)CN(C2CCC(=O)NC2=O)C3=O)nc1C1CCC(F)(F)CC1 (stereo not shown) [Example 545] shows DC50 equal to < 25 nM

Short answer for O=C1CCC(N2Cc3cc(-c4nc(C(F)F)oc4-c4ccccc4)ccc3C2=O)C(=O)N1 (stereo not shown) [Example 735] : DC50 was < 25 nM

Noted for CC(C)n1cc(-c2ccc3c(c2)CN(C2CCC(=O)NC2=O)C3=O)nc1-c1ccccc1 (stereo not shown) [Example 549] : its DC50 reads < 25 nM

Value of measured DC50 for the entry Cn1nc(-c2ccc3c(c2)CN(C2CCC(=O)NC2=O)C3=O)nc1N1CCCC1 (stereo not shown) [Example 713] : < 25 nM

Form field DC50, entry Cn1c(-c2ccc3c(c2)CN(C2CCC(=O)NC2=O)C3=O)cnc1N1CCCCC1 (stereo not shown) [Example 537] : < 25 nM

Noted for Cn1cc(-c2ccc3c(c2)CN(C2CCC(=O)NC2=O)C3=O)nc1-c1cccc(OC2CC2)c1 (stereo not shown) [Example 580] : its DC50 reads < 25 nM

// recorded DC50 for Cc1ccc(-c2nc(-c3ccc4c(c3)CN(C3CCC(=O)NC3=O)C4=O)cn2C)c(Cl)c1 (stereo not shown) [Example 648] : < 25 nM

Notebook: COc1ccncc1-c1c(-c2ccc3c(c2)CN(C2CCC(=O)NC2=O)C3=O)ncn1C (stereo not shown) [Example 524] , DC50 read as ≥ 25 nM

The molecule COc1ccccc1-c1nc(-c2ccc3c(c2)CN(C2CCC(=O)NC2=O)C3=O)cn1C (stereo not shown) [Example 673] showed DC50 equal to < 25 nM

Data point: O=C1CCC(N2Cc3cc(-c4cn(C(F)F)nc4-c4ccc5c(c4)CCO5)ccc3C2=O)C(=O)N1 (stereo not shown) [Example 423] ; DC50 = < 25 nM

Recorded result, Cn1nc(-c2ccc3c(c2)CN(C2CCC(=O)NC2=O)C3=O)nc1N1CCCCCC1 (stereo not shown) [Example 611] , DC50: < 25 nM

Notebook: Cn1cc(-c2ccc3c(c2)CN(C2CCC(=O)NC2=O)C3=O)nc1-c1ccc(F)cc1Cl (stereo not shown) [Example 647] , DC50 read as < 25 nM

The molecule Cn1cc(-c2ccc3c(c2)CN(C2CCC(=O)NC2=O)C3=O)nc1-c1ccc2c(c1)CCCO2 (stereo not shown) [Example 671] showed DC50 equal to < 25 nM

DC50 reading for Cn1cnc(-c2ccc3c(c2)CN(C2CCC(=O)NC2=O)C3=O)c1-c1cnn(C2CCCCC2)c1 (stereo not shown) [Example 517] : ≥ 25 nM

Form field DC50, entry Cn1ncc(-c2ccc3c(c2)CN(C2CCC(=O)NC2=O)C3=O)c1-c1cncc(OCc2ccccc2)c1 (stereo not shown) [Example 467] : ≥ 25 nM

====

Would you mind telling me the reported DC50 of each entry?
# Experimental Target: CK1α (Homo sapiens, UniProt P48729+Q96SW2)
# Construct: CSNK1A1-HiBit KI HEK293(LgBit) Cells; host or cells: HEK293(LgBit) knock-in cells
# Protocol: HiBiT degradation assay, CK1α, Procedure A
# Assay type: cell-based
# Run Conditions: six hours incubation

For CC(C)Cc1ccc(-c2c(-c3ccc4c(c3)CN(C3CCC(=O)NC3=O)C4=O)cnn2C)cc1 (stereo not shown) the compound record lists DC50 as ≥ 25 nM

# compound CC(C)Cc1ccc(-c2c(-c3ccc4c(c3)CN(C3CCC(=O)NC3=O)C4=O)ncn2C)cc1 (stereo not shown) ; its DC50 = < 25 nM

Documented DC50 of Cn1ncc(-c2ccc3c(c2)CN(C2CCC(=O)NC2=O)C3=O)c1-c1ccc2c(c1)CCO2 (stereo not shown) : < 25 nM

Briefly, DC50 measured for Cn1cnc(-c2ccc3c(c2)CN(C2CCC(=O)NC2=O)C3=O)c1-c1ccccc1C(F)(F)F (stereo not shown) : < 25 nM

Recorded result, Cc1cc(-c2c(-c3ccc4c(c3)CN(C3CCC(=O)NC3=O)C4=O)cnn2C)ccn1 (stereo not shown) , DC50: < 25 nM

Summary for this compound, COc1cc(F)ccc1-c1c(-c2ccc3c(c2)CN(C2CCC(=O)NC2=O)C3=O)ncn1C (stereo not shown) : DC50 is < 25 nM

So for COc1ccc(-c2c(-c3ccc4c(c3)CN(C3CCC(=O)NC3=O)C4=O)cnn2C)c(Cl)c1 (stereo not shown) , the logged DC50 turned out to be < 25 nM

For COc1ccccc1-c1c(-c2ccc3c(c2)CN(C2CCC(=O)NC2=O)C3=O)cnn1C (stereo not shown) the compound record lists DC50 as ≥ 25 nM

Per the record, Cn1ncc(-c2ccc3c(c2)CN(C2CCC(=O)NC2=O)C3=O)c1-c1ccccc1-c1ccccc1 (stereo not shown) has DC50 of < 25 nM

Recorded DC50 (compound Cn1ncc(-c2ccc3c(c2)CN(C2CCC(=O)NC2=O)C3=O)c1-c1ccc(N2CCOCC2)cc1 (stereo not shown) ): < 25 nM
